The measured values listed here are drawn from patent US8952024B2.

# Tested on: morningglory (Ipomoea coccinea)
# assay.details: Test B pre-/postemergence plant response
# Assay type: in vivo
# measurement.parameters: Postemergence, 31 g ai/ha; 0 to 100 scale (0 no effect, 100 complete control)
Please respond with reported Plant response rating, Morningglory for every item in the list.
Give bare numbers.

Worked set:
Lab book: Plant response rating, Morningglory of O=C1CCCC(O)=C1C(=O)c1cnc(-c2ccccc2)n(C2CCCC2)c1=O [Compound 131] noted as 70

Lab book: Plant response rating, Morningglory of CCCn1c(-c2cc(C)cc(C)c2)ncc(C(=O)C2=C(O)CCCC2=O)c1=O [Compound 156] noted as 80

Please examine the following record next.
Lab book: Plant response rating, Morningglory of COCCn1c(-c2ccsc2)ncc(C(=O)C2=C(O)C3CCC(C3)C2=O)c1=O (stereo not drawn) [Compound 228] noted as 100

---

# Tested on: chickweed (Stellaria media)
# assay.details: Test B postemergence plant response
# Format: in vivo
# measurement.parameters: Postemergence, 250 g ai/ha; scale 0 to 100 (0 no effect, 100 complete control); 13 to 15 days
assay.endpoint: Plant response rating, Chickweed
Answers are plain numbers.

Worked set:
Lab book: Plant response rating, Chickweed of Cc1ccc(F)cc1-n1c(-c2cccc(Cl)c2)ncc(C(=O)C2=C(O)CCCC2=O)c1=O noted as 100

Lab book: Plant response rating, Chickweed of CCn1c(-c2ccccc2)ncc(C(=O)C2=C(O)C3CCC(C3)C2=O)c1=O (stereo not shown) noted as 100

Lab book: Plant response rating, Chickweed of CCCn1c(-c2cccc(Cl)c2)ncc(C(=O)C2=C(O)CCCC2=O)c1=O noted as 100

Lab book: Plant response rating, Chickweed of Cc1ccc(Cl)cc1-n1c(-c2cccc(F)c2)ncc(C(=O)C2=C(O)CCCC2=O)c1=O noted as 100

Lab book: Plant response rating, Chickweed of CCCCn1c(-c2cccc(Cl)c2)ncc(C(=O)C2=C(O)CCCC2=O)c1=O noted as 98

Lab book: Plant response rating, Chickweed of CCCn1c(-c2cc(C)cc(C)c2)ncc(C(=O)C2=C(O)CCCC2=O)c1=O noted as 100

Continuing:
Lab book: Plant response rating, Chickweed of COCCCn1c(-c2cccc(Br)c2)ncc(C(=O)C2=C(O)CCCC2=O)c1=O noted as 75

---

# Tested on: wheat (Triticum aestivum)
# assay.details: Test B pre-/postemergence plant response
# Assay type: in vivo
# measurement.parameters: Postemergence, 125 g ai/ha; scale 0 to 100 (0 no effect, 100 complete control)
assay.endpoint: Plant response rating, Wheat
One number for each entry.

Worked set:
Entry Cc1ccc(F)cc1-n1c(-c2cccc(Cl)c2)ncc(C(=O)C2=C(O)CCCC2=O)c1=O ; assay system wheat (Triticum aestivum); Plant response rating, Wheat recorded at 20

Entry CCCn1c(-c2ccc(F)cc2)ncc(C(=O)C2=C(O)CCCC2=O)c1=O ; assay system wheat (Triticum aestivum); Plant response rating, Wheat recorded at 20

Entry O=C1CCCC(O)=C1C(=O)c1cnc(-c2cccc(F)c2)n(C2CCCCC2)c1=O ; assay system wheat (Triticum aestivum); Plant response rating, Wheat recorded at 5

Batch lookup, Plant response rating, Wheat per entry.
1. CCCCn1c(-c2cccc(Cl)c2)ncc(C(=O)C2=C(O)CCCC2=O)c1=O
2. Cc1cc(-n2c(-c3cccc(F)c3)ncc(C(=O)C3=C(O)CCCC3=O)c2=O)ccc1F

A.
1. 15
2. 55
